FYI, the data here is from ChEMBL document CHEMBL4825725.

Kindly state pKd for each of the entries shown.
assay: Binding affinity to Mycobacterium tuberculosis CYP124A1 by UV-visible spectrophotometric analysis; settings: read-out: Kd(app)
The scale used: pKd is minus the common logarithm of the concentration in molar units.

Request: Name the reported pKd value associated with the compound CC(C)=CCC/C(C)=C/CC/C(C)=C/CO [FARNESOL]
Response: 5.98

Request: Name the reported pKd value associated with the compound C#CCOC/C(C)=C/CC/C(C)=C/CC/C(C)=C/CO
Response: 5.82

Request: Name the reported pKd value associated with the compound C#CCOC/C(C)=C/CC/C(C)=C/CO
Response: 4.84

Request: Name the reported pKd value associated with the compound CC(C)CCCC(C)CCCC(C)CCCC(C)CC(=O)O (stereo unspecified)
Response: 6.66

Request: Name the reported pKd value associated with the compound C=CCOC/C(C)=C/CC/C(C)=C/CO
Response: 4.31

Request: Name the reported pKd value associated with the compound C=CCOC/C(C)=C/CC/C(C)=C/CC/C(C)=C/CO
Response: 5.54
